From: ChEMBL document CHEMBL4184201

The following compounds are listed with their measured log10 of Ki values.
- ASSAY SYSTEM: Tyrosine-protein phosphatase non-receptor type 1 (Homo sapiens, UniProt P18031)
- Sequence (P18031 whole entry, the tested form may be a part): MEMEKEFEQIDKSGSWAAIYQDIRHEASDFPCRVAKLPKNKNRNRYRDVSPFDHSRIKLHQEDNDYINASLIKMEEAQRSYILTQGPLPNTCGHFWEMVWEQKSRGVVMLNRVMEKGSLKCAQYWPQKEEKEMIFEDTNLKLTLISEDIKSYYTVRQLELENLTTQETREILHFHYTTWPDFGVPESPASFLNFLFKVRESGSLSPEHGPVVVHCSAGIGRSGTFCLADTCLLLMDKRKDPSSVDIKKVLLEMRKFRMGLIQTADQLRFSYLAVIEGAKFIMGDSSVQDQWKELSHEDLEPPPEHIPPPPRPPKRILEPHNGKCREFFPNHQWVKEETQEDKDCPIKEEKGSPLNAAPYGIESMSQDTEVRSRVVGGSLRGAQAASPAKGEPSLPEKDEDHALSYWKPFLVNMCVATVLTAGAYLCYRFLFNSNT
- TEST PROTOCOL: Inhibition of recombinant human PTP1B (1 to 322 residues) expressed in Escherichia coli using P-NPP as substrate after 10 mins by Dixon plot analysis
Scale: log10; quantity: Ki; unit before log: µM

Result for `CC(C)=CCC/C(C)=C/COc1cc2oc3ccc(O)cc3c(=O)c2c(O)c1CC=C(C)C` , tested on Tyrosine-protein phosphatase non-receptor type 1 (Homo sapiens, UniProt P18031), log10 of Ki: 0.71

Result for `CC(C)=CCc1c(O)cc2oc3cc(O)c(O)c(CC=C(C)C)c3c(=O)c2c1O` , tested on Tyrosine-protein phosphatase non-receptor type 1 (Homo sapiens, UniProt P18031), log10 of Ki: 0.43

Result for `COc1c(O)cc2oc3cc(O)c(CCC(C)(C)O)c(O)c3c(=O)c2c1CC=C(C)C` , tested on Tyrosine-protein phosphatase non-receptor type 1 (Homo sapiens, UniProt P18031), log10 of Ki: 1.36

Result for CC(C)=CCCC(C)(O)C1Cc2c(c(CC=C(C)C)c(O)c3c(=O)c4cc(O)ccc4oc23)O1 (centres undefined) , tested on Tyrosine-protein phosphatase non-receptor type 1 (Homo sapiens, UniProt P18031), log10 of Ki: 0.53

Result for C=C(CCC=C(C)C)C(O)Cc1c(O)c(CC=C(C)C)c(O)c2c(=O)c3cc(O)ccc3oc12 (centres undefined) , tested on Tyrosine-protein phosphatase non-receptor type 1 (Homo sapiens, UniProt P18031), log10 of Ki: 0.95

Result for `CC(C)=CCc1c(O)c(CC=C(C)C)c2oc3ccc(O)cc3c(=O)c2c1O` , tested on Tyrosine-protein phosphatase non-receptor type 1 (Homo sapiens, UniProt P18031), log10 of Ki: 1.05
